experiment: solvent given as SMILES; conditions: in CCOC(C)=O
# binarize absorption maximum: threshold 400 nm inclusive, high side True, low side False

These solved cases illustrate the format of a correct answer.
compound=Fc1ccc(-c2nc3n(c2-c2ccncc2)CCS3)cc1 answer_label=False
compound="COC1(OC)C2(Cl)c3nc4cc(-c5cccs5)ccc4nc3C1(Cl)C1C[C@H]3[C@@H](CC12)C1(Cl)c2nc4ccc(-c5cccs5)cc4nc2C3(Cl)C1(OC)OC (some centres undefined)" answer_label=False
compound=CN(C)c1ccc(/C=C/c2cc[n+](C)cc2)cc1 answer_label=True
compound=COc1ccc(-c2nc3c(c4c2-c2ccc(C#N)cc2CC4)-c2ccc(C#N)cc2CC3)cc1 answer_label=False
compound=CN(C)c1ccc2nc(/C=C/c3ccccc3)c(=O)oc2c1 answer_label=True

Given the entry `COc1ccc(C(=O)/C=C2\C(=O)Nc3ccccc32)cc1` , answer whether its absorption maximum meets or surpasses 400 nm. False

Given the entry `O=C1Nc2ccccc2/C1=C/C(=O)c1ccc([N+](=O)[O-])cc1` , answer whether its absorption maximum meets or surpasses 400 nm. False

----------
assay: solvent given as SMILES; conditions: in CN(C)C=O
absorption maximum overview
Give the quantity in nm, number only.

Report measured absorption maximum; entry is `CC[N+]1(CC)CN2C(=N1)C(C(=O)[O-])=Cc1ccccc12` 378

----------
absorption maximum overview
assay: solvent given as SMILES; details: in CC#N
Give the quantity in nm, number only.

smiles_repr=CN(C)c1ccc2cc3c(cc2c1)OCCN=C3 unit_abbrev=nm measurement=456
smiles_repr=CN1CCN(CCCN2c3ccccc3Sc3ccc(C(F)(F)F)cc32)CC1 unit_abbrev=nm measurement=310
smiles_repr=O=c1[nH]c2ccccc2[nH]1 unit_abbrev=nm measurement=281
smiles_repr=CCOC(=O)c1c2c3c(ccc(Br)c3c3cc4c(cc13)[Si](C)(C)O[Si]4(C)C)N(C)C2=O unit_abbrev=nm measurement=382
smiles_repr=CN(C)c1ccc(-c2nc3c(c4c2-c2ccc(C#N)cc2CC4)-c2ccc(C#N)cc2CC3)cc1 unit_abbrev=nm measurement=343

Report measured absorption maximum; entry is `O=C1O[B-]2(OC1=O)OC(c1ccccc1)=CC(c1ccc3ccccc3c1)=[O+]2` 435

Report measured absorption maximum; entry is `C[n+]1ccc(-c2ccc([O-])cc2)cc1` 472

Report measured absorption maximum; entry is `C(=C\c1cc[n+](Cc2ccccc2)cc1)/c1cc[n+](Cc2ccccc2)cc1` 324

Report measured absorption maximum; entry is `Cc1cc(C)c2c(c1)nc1c(=O)n(C)c(=O)nc-1n2C` 448

Report measured absorption maximum; entry is `CN1C(C(=O)Nc2ccccn2)=C(O)c2sccc2S1(=O)=O` 355

Report measured absorption maximum; entry is `CCCCCCCCCCCCc1ccc(-c2cc(C)[o+]c(C)c2)cc1` 350

----------
test: solvent given as SMILES; details: in CO
MEASURE: absorption maximum (nm)
Give the quantity in nm, number only.

smiles_repr=COc1ccc(/C=C/c2nc3ccccc3s2)cc1 measurement=350

Report measured absorption maximum; entry is `CC(C)(C)c1ccc(C(C)(C)C)c(N2C(=O)c3cccc4c(-c5ccc(-c6ccccc6)s5)ccc(c34)C2=O)c1` 403

Report measured absorption maximum; entry is `CCc1c(C)[nH]c(C2=[N+]3C(=Cc4c(C)c(CC)c(C)n4[B-]3(F)F)c3ccccc32)c1C` 623

Report measured absorption maximum; entry is `COC(=O)C[C@H](NC(=O)[C@H](Cc1c[nH]c2ccccc12)NC(=O)OC(C)(C)C)C(=O)OC` 280

Report measured absorption maximum; entry is `Oc1ccc2ccccc2c1C1Nc2cccc3cccc(c23)N1` 333

----------
test: solvent given as SMILES; settings: in CCCCOC(C)=O
absorption maximum overview
Remember to quote the unit after the number.

smiles_repr=CC1=C(C(C)(C)C)C(C)=[N+]2C1=C(C)c1c(C)c(C(C)(C)C)c(C)n1[B-]2(F)F measure="absorption maximum" measurement="524.3 nm"
smiles_repr=CN(C)c1ccc(/C=C2\CC/C(=C\c3ccc(C#N)cc3)C2=O)cc1 measure="absorption maximum" measurement="442 nm"
smiles_repr=Cc1cc(C(F)(F)F)nc2c1ccc1nc(-c3ccc(Cl)cc3)cn12 measure="absorption maximum" measurement="368.6 nm"

Report measured absorption maximum; entry is `CN(C)c1ccc(/C=C/C=C2\CC/C(=C\c3ccc(N(C)C)cc3)C2=O)cc1` 468 nm

----------
absorption maximum overview
experiment: solvent given as SMILES; details: in CCCCCCC
Give the quantity in nm, number only.

smiles_repr=C(/C=C/c1cc2c3c(c1)CCCN3CCC2)=C\c1ccncc1 measure="absorption maximum" measurement=403
smiles_repr=CN(C)c1ccc(/C=C/c2cnc3ccccc3n2)cc1 measure="absorption maximum" measurement=418
smiles_repr=Cc1ccccc1/C(C#N)=C/c1ccc(N(C)C)cc1 measure="absorption maximum" measurement=376
smiles_repr=CN(C)c1ccc2nc(/C=C/c3ccccc3)c(=O)oc2c1 measure="absorption maximum" measurement=436
smiles_repr=c1ccc2cc3c(cc2c1)-c1cccc2c1c-3cc1ccccc12 measure="absorption maximum" measurement=400

Report measured absorption maximum; entry is `c1cc2c3c(cccc3c1)-c1c-2c2ccccc2c2ccccc12` 397

Report measured absorption maximum; entry is `c1ccc2c3c(ccc2c1)-c1cccc2c1c-3cc1ccccc12` 383

Report measured absorption maximum; entry is `O=c1[nH]c2ccccc2[nH]1` 292

Report measured absorption maximum; entry is `N#C[Se]CCCCCOc1ccc2ccc(=O)oc2c1` 319

Report measured absorption maximum; entry is `CC(C)=C(C)C` 196

Report measured absorption maximum; entry is `c1ccc2c3c(ccc2c1)-c1cc2ccccc2c2cccc-3c12` 381

----------
assay: solvent given as SMILES; settings: in ClC(Cl)Cl
absorption maximum overview
Give the quantity in nm, number only.

// solved cases for absorption maximum follow
molecule="CCCCC1(c2ccccc2)Nc2c(-c3ccc(N(c4ccccc4)c4ccccc4)cc3)ccc(-c3ccc(N(c4ccccc4)c4ccccc4)cc3)c2N=C1c1ccccc1 (stereo not drawn)" unit_abbrev=nm measurement=370
molecule="O=P1(c2ccccc2)C(c2ccc(N(c3ccccc3)c3ccccc3)cc2)=Cc2ccccc21 (stereo not drawn)" unit_abbrev=nm measurement=418

Now for the molecule whose absorption maximum we want.
Report measured absorption maximum; entry is `CCC1(CC)c2cc(B(c3c(C)cc(C)cc3C)c3c(C)cc(C)cc3C)ccc2-c2ccc(N(c3ccccc3)c3ccc4c(c3)C(CC)(CC)c3cc(B(c5c(C)cc(C)cc5C)c5c(C)cc(C)cc5C)ccc3-4)cc21` 422

----------
test: solvent given as SMILES; settings: in CC#N
MEASURE: absorption maximum (nm)
Give the quantity in nm, number only.

Report measured absorption maximum; entry is COC(=O)C(NC(=O)OC(C)(C)C)c1ccc2oc(-c3ccc(OC(=O)c4ccccc4)cc3OC(=O)c3ccccc3)nc2c1 (stereo unspecified) 306

Report measured absorption maximum; entry is `CC(=O)c1cc2c(cc1F)NC(C)(C)CC2=O` 352

Report measured absorption maximum; entry is `CCCCCCCCN1c2ccc(C#Cc3ccc(C(F)(F)F)cc3)cc2Sc2cc(C=O)ccc21` 380

Report measured absorption maximum; entry is `Cc1nc2c(c[n+]1C)CN1C(=O)N([C@H]3O[C@@H](CO)[C@H](O)[C@@H]3O)C=CC1=N2` 390

Report measured absorption maximum; entry is `Cc1cc(O)c(C(=O)/C=C/c2ccc(Cl)cc2Cl)c(=O)o1` 349

Report measured absorption maximum; entry is `COC(=O)c1ccc2ccc3cccc4ccc1c2c34` 379

Report measured absorption maximum; entry is `CCOC(=O)c1c2c3c(cccc3c3cc4c(cc13)[Si](C)(C)O[Si]4(C)C)N(C)C2=O` 376

Report measured absorption maximum; entry is CC(C)(C)C1Nc2ccccc2C(=O)N1c1ccccc1 (stereo unspecified) 348

----------
assay: solvent given as SMILES; conditions: in CC#N
Doc: threshold 400 nm (exclusive). Items with absorption maximum beneath it return satisfied; others return not satisfied.

smiles_repr=CCc1c(C)c2n(c1C)[B-](F)(F)[N+]1=C(c3ccc[nH]3)c3ccccc3C1=C2C answer_label="not satisfied"

Could you please tell me whether absorption maximum recorded for `Cc1sc(Cl)cc1-c1nc(-c2ccccc2)[nH]c1-c1cc(Cl)sc1C` is less than 400 nm? satisfied

Could you please tell me whether absorption maximum recorded for `Cc1ccc(C)n1-c1ccccc1` is less than 400 nm? satisfied

Could you please tell me whether absorption maximum recorded for `Cn1nc(-c2ccccc2)c2nc3cc(Cl)ccc3nc21` is less than 400 nm? not satisfied

----------
absorption maximum overview
test: solvent given as SMILES; conditions: in CC#N
Give the quantity in nm, number only.

compound=CCC1=C(C)C2=C(c3c4ccccc4c(-c4ccccc4)c4ccccc34)c3c(C)c(CC)c(C)n3[B-](F)(F)[N+]2=C1C measurement=528
compound=CC1(C)CC(/C=C/c2ccc(-n3cccn3)cc2)=CC(=C(C#N)C#N)C1 measurement=397
compound=N#Cc1nc2c(nc1C#N)C1c3ccc(N(c4ccccc4)c4ccccc4)cc3C2c2ccc(N(c3ccccc3)c3ccccc3)cc21 measurement=378
compound=O=CC1=C(c2ccc(-c3cccs3)s2)CCC1 measurement=374
compound=CCN(CC)c1ccc(/N=N/c2nc3ccc(Br)cc3s2)cc1 measurement=520

Report measured absorption maximum; entry is `CCN1\C(=C/C=C/C=C/C2=[N+](CC)c3ccc4cc(Br)ccc4c3C2(C)C)C(C)(C)c2c1ccc1cc(Br)ccc21` 680

Report measured absorption maximum; entry is CCCCC(CC)Cn1c2ccc(C(=C(C#N)C#N)c3ccccc3)cc2c2c(-c3ccc(Br)cc3)c3c(c(-c4ccc(Br)cc4)c21)c1cc(C(=C(C#N)C#N)c2ccccc2)ccc1n3CC(CC)CCCC (stereo not drawn) 462

Report measured absorption maximum; entry is `c1ccc(-n2cccc2)cc1` 252

Cited source: the Deep4Chem optical property database
